The measured values listed here are drawn from the supplement of paper PMC7125110.

B1: glmS ribozyme (parent)
chain: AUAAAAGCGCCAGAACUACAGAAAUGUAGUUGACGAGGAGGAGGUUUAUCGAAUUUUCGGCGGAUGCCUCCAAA

- Variants of: B1
- experimental protocol: self-cleavage kobs at 10000 uM GlcN6P; higher = faster cleavage; RNA array
- condition label: with glucosamine-6-phosphate
Variants at the floor of the assay were thinned out.
Readings of self-cleavage kobs at 10000 uM GlcN6P for the listed variants
Expressed in s⁻¹, but write only the number.

- variant string: "A15C C71U"
  self-cleavage kobs at 10000 uM GlcN6P, s⁻¹: 0.00453
- variant string: "A12U G44U A52G"
  self-cleavage kobs at 10000 uM GlcN6P, s⁻¹: "4.49e-05"

Ask: # input variant: C11G C50G C68G C71U ; wanted: its self-cleavage kobs at 10000 uM GlcN6P
Reply: 8.16e-05

Ask: Fill in the blank: the reported self-cleavage kobs at 10000 uM GlcN6P of A33U A64G is ____.
Reply: 6.18e-05

Ask: Record request: self-cleavage kobs at 10000 uM GlcN6P value, item A12G G29C
Reply: 0.000123

Ask: Find the recorded self-cleavage kobs at 10000 uM GlcN6P belonging to U54C and report it.
Reply: 0.051

Ask: Fill blank: measured self-cleavage kobs at 10000 uM GlcN6P of the variant C10U C34A C50G U65A is ____.
Reply: 0.000129

Ask: Which self-cleavage kobs at 10000 uM GlcN6P is listed for A15C A39U ?
Reply: 0.00417
